Experiment: PAMPA experiment
Assay type: in vitro ADME
Details: 1.8% lecithin membrane, drug test solution 10 μM, 37° C., 16 hours

# compound, PAMPA (−Log Pe)
rows = [
    ("O=C1CC(=O)OCN2C(=O)CCC(C2=O)N2Cc3cc(ccc3C2=O)OCCOC/C=C\\COCCOc2ccc(c(Cl)c2)-c2cc(=O)c3cc(I)c(cc3o2)CO1 (stereo not drawn) [Example 1]", 6.71),
    ("O=C1CCC2C(=O)N1COP(=O)(O)OCc1cc3oc(cc(=O)c3cc1I)-c1ccc(cc1Cl)OCCOC/C=C\\COCCOc1ccc3c(c1)C(=O)N2C3=O (stereo not drawn) [Example 2]", 6.0),
    ("O=C1OCc2cc3oc(cc(=O)c3cc2I)-c2ccc(cc2Cl)OCCOC/C=C\\COCCOc2ccc3c(c2)CN(C3=O)C2CCC(=O)N(COC(=O)c3cccc1c3)C2=O (stereo not drawn) [Example 5]", 5.78),
    ("CN1CC(=O)OCc2ccc3c(=O)cc(oc3c2)-c2ccc(cc2Cl)OCCOC/C=C/COCCOc2ccc3c(c2)CN(C3=O)C2CCC(=O)N(COC(=O)C1)C2=O (stereo not drawn) [Example 9]", 5.52),
    ("O=C1OCc2ccc3c(=O)cc(oc3c2)-c2ccc(cc2Cl)OCCCC/C=C/CCCCOc2ccc3c(c2)CN(C3=O)C2CCC(=O)N(COC(=O)c3cccc1c3)C2=O (stereo not drawn) [Example 6]", 8.55),
    ("O=C1CC(=O)OCN2C(=O)CCC(C2=O)N2Cc3cc(ccc3C2=O)OCCCC/C=C\\CCCCOc2ccc(c(Cl)c2)-c2cc(=O)c3ccc(cc3o2)CO1 (stereo not drawn) [Example 4]", 6.11),
]

---

Target: SHP2 (Homo sapiens)
Construct: endogenous in cells; host or cells: SUM159 triple-negative breast cancer cells
Sequence (Q06124 whole entry): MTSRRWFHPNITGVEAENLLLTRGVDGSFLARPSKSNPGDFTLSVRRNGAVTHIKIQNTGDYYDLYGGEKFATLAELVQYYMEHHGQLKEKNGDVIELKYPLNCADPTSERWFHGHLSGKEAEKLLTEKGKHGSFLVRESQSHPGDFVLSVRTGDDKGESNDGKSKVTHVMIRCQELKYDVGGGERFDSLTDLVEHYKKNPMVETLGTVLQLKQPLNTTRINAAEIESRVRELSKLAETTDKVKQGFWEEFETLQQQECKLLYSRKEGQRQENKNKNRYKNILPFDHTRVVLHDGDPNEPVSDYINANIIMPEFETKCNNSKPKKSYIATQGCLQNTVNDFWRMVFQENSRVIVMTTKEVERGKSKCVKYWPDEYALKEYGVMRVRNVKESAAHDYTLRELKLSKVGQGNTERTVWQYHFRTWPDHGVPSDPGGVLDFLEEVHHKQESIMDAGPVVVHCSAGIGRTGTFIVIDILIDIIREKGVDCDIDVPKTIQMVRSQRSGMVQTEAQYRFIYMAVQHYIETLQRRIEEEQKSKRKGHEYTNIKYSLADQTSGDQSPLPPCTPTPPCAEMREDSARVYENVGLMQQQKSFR
Assay: Western blot, degradation of SHP2 in vitro
Assay type: cell-based
Conditions: degradation of SHP2 in SUM159 cells, 24 hours with compound
experimental readout: log10 DC50 (log10 of the value in µM)

# molecule, readout value
rows = [
    ("O=C1OCc2cc3oc(cc(=O)c3cc2I)-c2ccc(cc2Cl)OCCOC/C=C\\COCCOc2ccc3c(c2)CN(C3=O)C2CCC(=O)N(COC(=O)c3cccc1c3)C2=O (stereo not shown)", -0.30),
    ("CN1CC(=O)OCc2ccc3c(=O)cc(oc3c2)-c2ccc(cc2Cl)OCCOC/C=C/COCCOc2ccc3c(c2)CN(C3=O)C2CCC(=O)N(COC(=O)C1)C2=O (stereo not shown)", -2.38),
    ("O=C1CC(=O)OCN2C(=O)CCC(C2=O)N2Cc3cc(ccc3C2=O)OCCOC/C=C\\COCCOc2ccc(c(Cl)c2)-c2cc(=O)c3cc(I)c(cc3o2)CO1 (stereo not shown)", -0.68),
    ("O=C1CC(=O)OCN2C(=O)CCC(C2=O)N2Cc3cc(ccc3C2=O)OCCOC/C=C\\COCCOc2ccc(c(Cl)c2)-c2cc(=O)c3ccc(cc3o2)CO1 (stereo not shown)", -0.73),
    ("O=C1OCc2cc3oc(cc(=O)c3cc2I)-c2ccc(cc2Cl)OCCOC/C=C\\COCCOc2ccc3c(c2)CN(C3=O)C2CCC(=O)N(COC1=O)C2=O (stereo not shown)", -1.43),
    ("CN1CC(=O)OCc2ccc3c(=O)cc(oc3c2)-c2ccc(cc2Cl)OCCOCCCCOCCOc2ccc3c(c2)CN(C3=O)C2CCC(=O)N(COC(=O)C1)C2=O (stereo not shown)", -2.23),
    ("O=C1OCc2ccc3c(=O)cc(oc3c2)-c2ccc(cc2Cl)OCCCC/C=C/CCCCOc2ccc3c(c2)CN(C3=O)C2CCC(=O)N(COC(=O)c3cccc1c3)C2=O (stereo not shown)", -2.00),
]
